# Read-out: Interferon-gamma inducible Protein 10 (IP10), CXCL10 (gene 3627)
# Experiment Notes: BSK_KF3CT_IP10: BioMAP Diversity Plus: KF3CT Assay for Interferon-gamma inducible Protein 10 (IP10) Biomarker Activity (AID 2283068)
# Run Parameters: primary human keratinocytes with fibroblasts; actives raise or lower the signal
# Procedure: BSK_KF3CT is a cell-based, multiplexed-readout assay that uses keratinocytes and foreskin fibroblasts, a human skin primary cell co-culture, with measurements taken at 24 hours after chemical dosing in a 96-well plate.BSK_KF3CT_IP10 is an assay component measured in the BSK_KF3CT assay. It measures IP-10 antibody related to regulation of gene expression using ELISA technology.Data from the assay component BSK_KF3CT_IP10 was analyzed into 1 assay endpoint. […]
Active and inactive are the calls of the source. The calls were made as follows: active = hit-call score of the fitted dose curve at least 0.9, where 1 is the maximum; inactive = score below 0.9.
Endpoint: AC50

Worked examples follow.
[
  {
    "Compound": "CN(C)CCCN(C)CCCN(C)C",
    "AC50": "inactive"
  },
  {
    "Compound": "CC(=O)S[C@H](C(=O)N[C@H]1Cc2ccccc2[C@H]2CCC[C@@H](C(=O)O)N2C1=O)C(C)C",
    "AC50": "inactive"
  },
  {
    "Compound": "O=C(O)c1[nH]n(-c2ccc(S(=O)(=O)O)cc2)c(=O)c1N=Nc1ccc(S(=O)(=O)O)cc1",
    "AC50": "inactive"
  },
  {
    "Compound": "CCCCCCCCCCCCCCCCO",
    "AC50": "inactive"
  },
  {
    "Compound": "Cc1cc(Cc2ccc(N)c(C)c2)ccc1N",
    "AC50": "inactive"
  }
]

Note: attention shifts to another entry.
Data request: Using the record for CC(=O)CC(c1ccccc1)c1c(O)c2ccccc2oc1=O (stereo not given) , report its AC50.
Data returned: inactive
